assay: A549 cell viability effects, profiling panel, calcein-AM fluorescence, 48 h, basal (AID 1162); conditions: higher = more signal; further: test concentration not given here
z-score vs -0.2: at or above is true (1), below is false (0).

1. COc1cc2c(cc1OC)CN(C(=O)[C@H]1[C@@H]3C(=O)O[C@@H](c4ccccc4)[C@@H](c4ccccc4)N3[C@@H](c3ccc(O)cc3)[C@]13C(=O)Nc1ccccc13)CC2: false (0)
2. C=CC1(C(=O)OC)CC=C(C(=O)OC)CC1 (configuration not stated): true (1)
3. C=CCN1C(=O)[C@@]2(CC=C)N=C(c3ccc(OCCCO)cc3)O[C@H]2c2ccccc21: true (1)
4. CCOC(=O)[C@H]1C/C=C/C[C@H](C(=O)OCC)C(=O)O[C@H]2[C@@H](OC)O[C@H](CO)[C@@H](OC(=O)c3c(OC)cccc3OC)[C@@H]2OC1=O: false (0)
5. COc1cc2c(cc1OC)CN(C(=O)[C@@H]1[C@H]3C(=O)O[C@H](c4ccccc4)[C@H](c4ccccc4)N3[C@H](c3ccccc3OCCO)[C@@]13C(=O)Nc1ccc(C#CCCO)cc13)CC2: true (1)
6. COc1ccc(CCNC(=O)[C@@]2(Sc3ccc(C)cc3)CC(=O)N(C3Cc4ccccc4C3)[C@@H]2c2ccc(CO)cc2I)cc1: true (1)
7. [N-]=[N+]=NCc1ccccc1C[C@]1(C(=O)N2CCCCC2)N=C(c2ccc(OCCCO)cc2)O[C@H]1c1ccccc1N=[N+]=[N-]: false (0)

Value source: PubChem BioAssay
